- Species: Rattus norvegicus
- procedure-details: DrugMatrix - Regimen: Daily Repeat
- Format: toxicity, organism-based, Sprague-Dawley
- Set-up: regimen Daily Repeat, gender Male, age 6-8 weeks
- condition-parameters: in vivo, po, 0 mg/kg, 120 h, tissue Plasma, route oral GAVAGE, dose level Control, time 5 day, vehicle .5 % CMC
endpoint-label: CARBON DIOXIDE
Quick note: number first, unit second.

| molecule | measurement |
| --- | --- |
| CO[C@H]1C[C@@H]2CC[C@@H](C)[C@@](O)(O2)C(=O)C(=O)N2CCCC[C@H]2C(=O)O[C@H]([C@H](C)C[C@@H]2CC[C@@H](O)[C@H](OC)C2)CC(=O)[C@H](C)/C=C(\C)[C@@H](O)[C@@H](OC)C(=O)[C@H](C)C[C@H](C)/C=C/C=C/C=C/1C | 29.17 mmol/L |
| CCOC(=O)[C@H](CCc1ccccc1)N[C@@H](C)C(=O)N1Cc2ccccc2C[C@H]1C(=O)O | 28.33 mmol/L |
| CC(=O)O[C@]1(C(C)=O)CC[C@H]2[C@@H]3C=C(Cl)C4=CC(=O)[C@@H]5C[C@@H]5[C@]4(C)[C@H]3CC[C@@]21C [CYPROTERONE ACETATE] | 28.33 mmol/L |

Would you kindly look at the next entry?
The recorded CARBON DIOXIDE for entry C[C@@H](O)[C@H]1C(=O)N2C(C(=O)O)=C(S[C@@H]3CN[C@H](C(=O)N(C)C)C3)[C@H](C)[C@H]12 equals 27.5 mmol/L

----------
Entries annotated with measured ABSOLUTE MONOCYTE
- Species on record: Rattus norvegicus
- procedure-details: DrugMatrix - Regimen: Daily Repeat
- Type: toxicity, organism-based, Sprague-Dawley
- Parameters: regimen Daily Repeat, gender Male, age 6-8 weeks
- condition-parameters: in vivo, po, 0 mg/kg, […], tissue Blood, route oral GAVAGE, dose level Control, time 14 day
The figure you give is taken to be in cells/µL; do not add the unit.

Form: molecule = CC(CCc1ccc(O)cc1)NCCc1ccc(O)c(O)c1 (configuration not stated) [DOBUTAMINE] ; ABSOLUTE MONOCYTE = 250

// field: ABSOLUTE MONOCYTE; key: CC[C@H](C)C(=O)O[C@H]1C[C@H](O)C=C2C=C[C@H](C)[C@H](CC[C@@H](O)C[C@@H](O)CC(=O)O)[C@H]21 [PRAVASTATIN] ; value = 290

----------
- Species: Rattus norvegicus
- procedure-details: DrugMatrix - Regimen: Daily Repeat
- Assay type: toxicity, organism-based, Sprague-Dawley
- Set-up: regimen Daily Repeat, gender Male, age 6-8 weeks
- condition-parameters: in vivo, po, 0 mg/kg, 120 h, tissue Blood, route oral GAVAGE, dose level Control, time 5 day, vehicle .5 % CMC
endpoint-label: ABSOLUTE SEGMENTED NEUTROPHIL

| compound | endpoint-label | measurement |
| --- | --- | --- |
| C[C@@H]1CC[C@H]2[C@@H](C)C(=O)O[C@@H]3O[C@@]4(C)CC[C@@H]1[C@]32OO4 | ABSOLUTE SEGMENTED NEUTROPHIL | 1225 CELLS/uL |

Short answer for CO[C@H]1C[C@@H]2CC[C@@H](C)[C@@](O)(O2)C(=O)C(=O)N2CCCC[C@H]2C(=O)O[C@H]([C@H](C)C[C@@H]2CC[C@@H](O)[C@H](OC)C2)CC(=O)[C@H](C)/C=C(\C)[C@@H](O)[C@@H](OC)C(=O)[C@H](C)C[C@H](C)/C=C/C=C/C=C/1C : ABSOLUTE SEGMENTED NEUTROPHIL was 1321.67 CELLS/uL

Looking up Clc1cc2c(cc1Cl)Oc1cc(Cl)c(Cl)cc1O2 , I found its ABSOLUTE SEGMENTED NEUTROPHIL recorded as 1130 cells/µL

----------
- Species: Rattus norvegicus
- procedure-details: DrugMatrix - Regimen: Daily Repeat
- Type: toxicity, organism-based, Sprague-Dawley
- Design: regimen Daily Repeat, gender Male, age 6-8 weeks
- condition-parameters: in vivo, po, 0 mg/kg, 120 h, tissue Plasma, route oral GAVAGE, dose level Control, time 5 day, vehicle .5 % CMC
endpoint-label: ALKALINE PHOSPHATASE (u/L)
Could you give me the number in u/L? Just the number is fine.

// known answers, use as guide
| compound | display-unit | measurement |
| --- | --- | --- |
| C=C(CC)C(=O)c1ccc(OCC(=O)O)c(Cl)c1Cl | u/L | 316.67 |
| CC(C(=O)O)c1ccc(-c2ccccc2)c(F)c1 (stereo not given) | u/L | 336 |
| C[C@@H](O)[C@H]1C(=O)N2C(C(=O)O)=C(S[C@@H]3CN[C@H](C(=O)N(C)C)C3)[C@H](C)[C@H]12 | u/L | 336 |
| COc1ccc(/C=C/C(=O)Nc2ccccc2C(=O)O)cc1OC | u/L | 336 |

Lab note: next compound to report on.
Value of measured ALKALINE PHOSPHATASE for the entry Cc1cnc(C(=O)NCCc2ccc(S(=O)(=O)NC(=O)NC3CCCCC3)cc2)cn1 [GLIPIZIDE] : 337

----------
- Organism: Rattus norvegicus
- procedure-details: DrugMatrix - Regimen: Daily Repeat
- Format: toxicity, organism-based, Sprague-Dawley
- Parameters: regimen Daily Repeat, gender Male, age 6-8 weeks
- condition-parameters: in vivo, po, 0 mg/kg, 72 h, tissue Plasma, route oral GAVAGE, dose level Control, time 3 day, vehicle 100 % WATER
endpoint-label: PHOSPHORUS (mg/dL)
Reply numerically in mg/dL, unit not repeated.

Some entries whose results are on file:
| compound | endpoint-label | measurement |
| --- | --- | --- |
| CCN[C@@H](C)Cc1cccc(C(F)(F)F)c1 [DEXFENFLURAMINE] | PHOSPHORUS | 11.42 |
| CC[C@H]1OC(=O)[C@H](C)[C@@H](O[C@H]2C[C@@](C)(OC)[C@@H](O)[C@H](C)O2)[C@H](C)[C@@H](O[C@@H]2O[C@H](C)C[C@H](N(C)C)[C@H]2O)[C@](C)(O)C[C@@H](C)CN(C)[C@H](C)[C@@H](O)[C@]1(C)O [AZITHROMYCIN] | PHOSPHORUS | 10.88 |

Lookup result for CC(C)(C)NC[C@H](O)COc1nsnc1N1CCOCC1 [TIMOLOL] ; measured PHOSPHORUS: 11.18

----------
- Organism: Rattus norvegicus
- procedure-details: DrugMatrix - Regimen: Daily Repeat
- Format: toxicity, organism-based, Sprague-Dawley
- Set-up: regimen Daily Repeat, gender Male, age 6-8 weeks
- condition-parameters: in vivo, po, 0 mg/kg, 120 h, tissue Blood, route oral GAVAGE, dose level Control, time 5 day, […]
endpoint-label: LYMPHOCYTE (%)
Just the number please, in %, no unit attached.

Look over these answered cases.
| compound | endpoint-label | measurement |
| --- | --- | --- |
| CC(CCc1ccc(O)cc1)NCCc1ccc(O)c(O)c1 (centres undefined) [DOBUTAMINE] | LYMPHOCYTE | 83.83 |
| CC(C)Cc1ccc(CC(=O)O)cc1 [IBUFENAC] | LYMPHOCYTE | 83 |
| CC(=O)Nc1nnc(S(N)(=O)=O)s1 [ACETAZOLAMIDE] | LYMPHOCYTE | 91.17 |
| CC[C@H](C)C(=O)O[C@H]1C[C@@H](C)C=C2C=C[C@H](C)[C@H](CC[C@@H]3C[C@@H](O)CC(=O)O3)[C@H]21 [LOVASTATIN] | LYMPHOCYTE | 87 |

Query COc1ncnc(NS(=O)(=O)c2ccc(N)cc2)c1OC [SULFADOXINE] yields LYMPHOCYTE of 91.17

Sample C#C[C@]1(O)CC[C@H]2[C@@H]3CCc4cc(O)ccc4[C@H]3CC[C@@]21C [ETHINYL ESTRADIOL] ; LYMPHOCYTE observed: 79.67

GET /value?item= OCCN1CCN(CCCN2c3ccccc3Sc3ccc(C(F)(F)F)cc32)CC1 [FLUPHENAZINE] &field=LYMPHOCYTE returns 89.67

So for CCn1cc(C(=O)O)c(=O)c2cc(F)c(N3CCNCC3)nc21 [ENOXACIN] , the logged LYMPHOCYTE turned out to be 79.67

CN(CCOc1ccc(CC2SC(=O)NC2=O)cc1)c1ccccn1 (centres undefined) [ROSIGLITAZONE] has a reported LYMPHOCYTE of 90.17

----------
Listed below: URIC ACID values for each entry.
- Organism: Rattus norvegicus
- procedure-details: DrugMatrix - Regimen: Daily Repeat
- Format: toxicity, organism-based, Sprague-Dawley
- Design: regimen Daily Repeat, gender Male, age 6-8 weeks
- condition-parameters: in vivo, po, 0 mg/kg, 72 h, tissue Plasma, route oral GAVAGE, dose level Control, time 3 day, vehicle 100 % SALINE
Only the number, expressed in mg/dL, is required.

Known URIC ACID results, listed for orientation:
| compound | URIC ACID (mg/dL) |
| --- | --- |
| CCCc1nn(C)c2c(=O)[nH]c(-c3cc(S(=O)(=O)N4CCN(C)CC4)ccc3OCC)nc12 | 1.42 |
| Oc1ccccc1O | 1.9 |
| CC(=O)OCC(CCn1cnc2cnc(N)nc21)COC(C)=O | 1.42 |

# evaluate next
URIC ACID reading for Cc1cc(CC(=O)O)n(C)c1C(=O)c1ccc(Cl)cc1 [ZOMEPIRAC] : 1.9

Just for reference, ChEMBL document CHEMBL3885881 is where these values come from.
